The measurements presented in this section are drawn from patent US5852049A.

target: human 5HT1Dβ (Homo sapiens, UniProt P28222); construct: expressed in transfected cells; host or cells: Cos-7 and CHO-K1; assay: binding to human 5HT1Dβ receptor
Sequence (P28222 whole entry): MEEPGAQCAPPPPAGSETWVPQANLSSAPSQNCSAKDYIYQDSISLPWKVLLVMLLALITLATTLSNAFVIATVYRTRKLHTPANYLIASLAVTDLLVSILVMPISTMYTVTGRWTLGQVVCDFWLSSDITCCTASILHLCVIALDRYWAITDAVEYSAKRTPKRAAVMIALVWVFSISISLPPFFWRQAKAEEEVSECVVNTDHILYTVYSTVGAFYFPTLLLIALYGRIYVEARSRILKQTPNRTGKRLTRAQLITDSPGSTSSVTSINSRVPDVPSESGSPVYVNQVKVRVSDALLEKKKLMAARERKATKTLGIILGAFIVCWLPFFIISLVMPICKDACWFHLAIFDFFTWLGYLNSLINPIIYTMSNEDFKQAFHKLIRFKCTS
Counter-ions that a name gives are not always drawn.
# key: entry, value: Ki
REPORTED_PROPERTY: Ki (nM)

1. CC(C)OC(=O)CCCCCOc1ccc2[nH]cc(CCN)c2c1 [Example 16, hydrochloride]	0.7
2. CC(=O)OCCCCOc1ccc2[nH]cc(CCN)c2c1 [Example 23, hydrochloride]	0.4
3. NCCCCCCOc1ccc2[nH]cc(CCN)c2c1 [Example 18, hydrochloride]	2
4. CS(=O)(=O)NCCCCCCOc1ccc2[nH]cc(CCN)c2c1 [Example 19, hydrochloride]	0.7

###

molecular target: human 5HT1Dβ (Homo sapiens, UniProt P28222); construct: expressed in transfected cells; host or cells: Cos-7 and CHO-K1; test: binding to human 5HT1Dβ receptor; conditions: read-out: Ki 5HT1Dβ; human receptor, [3H]-5CT 2 nM
pKi: −log10 of the molar value. Structures can show the parent of a compound that is named as a salt.
REPORTED_PROPERTY: pKi

1) CCNC(=O)CCCCCOc1ccc2[nH]cc(CCN)c2c1 [Example 20, hydrochloride]	8.96

###

biological target: human 5HT1Dα (Homo sapiens, UniProt P28221); construct: expressed in transfected cells; host or cells: Cos-7 and CHO-K1; experiment: binding to human 5HT1Dα receptor; settings: read-out: Ki 5HT1Dα; human receptor, [3H]-5CT 2 nM
Sequence (P28221 whole entry): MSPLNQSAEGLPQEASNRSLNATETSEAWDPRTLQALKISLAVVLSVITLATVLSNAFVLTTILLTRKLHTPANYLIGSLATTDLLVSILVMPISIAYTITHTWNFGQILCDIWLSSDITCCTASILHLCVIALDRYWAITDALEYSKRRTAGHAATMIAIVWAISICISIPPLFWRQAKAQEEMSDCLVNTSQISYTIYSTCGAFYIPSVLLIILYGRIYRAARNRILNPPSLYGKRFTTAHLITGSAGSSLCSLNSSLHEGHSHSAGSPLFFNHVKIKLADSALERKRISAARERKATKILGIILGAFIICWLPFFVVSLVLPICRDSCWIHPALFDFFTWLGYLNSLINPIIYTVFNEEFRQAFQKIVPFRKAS
Where a name gives a salt, the structure may show the parent alone.
REPORTED_PROPERTY: Ki (nM)

1) CCNC(=O)CCCCCOc1ccc2[nH]cc(CCN)c2c1 [Example 20, hydrochloride]	2

###

target: human 5HT1Dβ (Homo sapiens); construct: expressed in transfected cells; host or cells: Cos-7 and CHO-K1; test: binding to human 5HT1Dβ receptor; details: human receptor, [3H]-5CT 2 nM; read-out: Ki 5HT1Dβ
Where a name gives a salt, the structure may show the parent alone.
REPORTED_PROPERTY: Ki (nM)

1. CNS(=O)(=O)CCc1ccc2[nH]cc(C3CCN(C)CC3)c2c1 [Naratriptan, reference compound]	2
2. N#CCCCCCOc1ccc2[nH]cc(CCN)c2c1 [Example 17, hydrochloride]	2.6

###

target: human 5HT1A (Homo sapiens); construct: expressed in transfected cells; host or cells: HeLa HA7; assay: binding to human 5HT1A receptor (HeLa HA7 cell line); details: read-out: Ki 5HT1A; human receptor, HeLa HA7, [3H]-8OH-DPAT 1 nM
Sequence (P08908 whole entry): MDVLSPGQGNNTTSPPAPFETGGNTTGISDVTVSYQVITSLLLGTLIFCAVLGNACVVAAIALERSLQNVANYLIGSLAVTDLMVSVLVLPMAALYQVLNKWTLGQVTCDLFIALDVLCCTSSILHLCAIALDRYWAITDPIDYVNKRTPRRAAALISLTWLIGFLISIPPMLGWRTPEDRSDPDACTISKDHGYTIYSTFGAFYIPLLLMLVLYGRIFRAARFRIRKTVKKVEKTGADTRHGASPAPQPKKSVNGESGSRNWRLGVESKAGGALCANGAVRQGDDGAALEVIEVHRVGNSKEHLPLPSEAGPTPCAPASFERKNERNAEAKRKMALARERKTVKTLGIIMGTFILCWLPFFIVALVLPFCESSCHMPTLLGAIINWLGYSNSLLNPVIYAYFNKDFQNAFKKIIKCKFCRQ
Structures can show the parent of a compound that is named as a salt.
REPORTED_PROPERTY: Ki (nM)

1. CCNC(=O)CCCCCOc1ccc2[nH]cc(CCN)c2c1 [Example 20, hydrochloride]	46.5

###

# key: entry, value: Ki
molecular target: human 5HT1Dα (Homo sapiens, UniProt P28221); construct: expressed in transfected cells; host or cells: Cos-7 and CHO-K1; assay: binding to human 5HT1Dα receptor
Counter-ions that a name gives are not always drawn.
REPORTED_PROPERTY: Ki (nM)

1) CC(C)OC(=O)CCCCCOc1ccc2[nH]cc(CCN)c2c1 [Example 16, hydrochloride]	1.5
2) N#CCCCCCOc1ccc2[nH]cc(CCN)c2c1 [Example 17, hydrochloride]	2.2
3) CC(=O)OCCCCOc1ccc2[nH]cc(CCN)c2c1 [Example 23, hydrochloride]	0.9
4) CS(=O)(=O)NCCCCCCOc1ccc2[nH]cc(CCN)c2c1 [Example 19, hydrochloride]	1.1
5) NCCCCCCOc1ccc2[nH]cc(CCN)c2c1 [Example 18, hydrochloride]	2.4
